# targetEntity: IKK2 (IKKβ) (Homo sapiens)
# Construct: made in house; host or cells: baculovirus-infected insect cells (SF9)
# measurementNotes: IKK2 (IKKβ) resin enzyme assay
# Type: biochemical
# assayConditions: Table 2; read-out: IKK2 Resin Avg. IC50
Here the recorded IC50 is given for each entry.

Record CC(=O)N1Cc2c(C(N)=O)nn(-c3ccc4c(c3)OCO4)c2-c2cc(NC(=O)c3ccccc3Cl)ccc21 [Example 18] / IKK2 (IKKβ) (Homo sapiens), IC50 recorded as ≤ 1000 nM

Record CC(=O)N1Cc2c(C(N)=O)nn(-c3ccc(F)cc3)c2-c2cc(NS(C)(=O)=O)ccc21 [Example 25] / IKK2 (IKKβ) (Homo sapiens), IC50 recorded as < 1000 nM

Record CC(=O)N1Cc2c(C(N)=O)nn(-c3ccc4c(c3)OCO4)c2-c2cc(NC(=O)c3ccncc3Cl)ccc21 [Example 22] / IKK2 (IKKβ) (Homo sapiens), IC50 recorded as < 1000 nM

Record CC(=O)N1Cc2c(C(N)=O)nn(-c3ccc4c(c3)OCO4)c2-c2cc(N)ccc21 [Example 17, acetate] / IKK2 (IKKβ) (Homo sapiens), IC50 recorded as ≤ 1000 nM

Record CC(=O)N1Cc2c(C(N)=O)nn(-c3ccc4c(c3)OCO4)c2-c2cc(NS(C)(=O)=O)ccc21 [Example 23] / IKK2 (IKKβ) (Homo sapiens), IC50 recorded as < 1000 nM

====

# targetEntity: IKK2 (IKKβ) (Homo sapiens)
# Construct: made in house; host or cells: baculovirus-infected insect cells (SF9)
# measurementNotes: IKK2 (IKKβ) resin enzyme assay
# Assay type: biochemical
# assayConditions: Table 3; read-out: IKK2 Resin IC50
pIC50: −log10 of the molar value.
quantity: pIC50

{"molecule": "NC(=O)c1nn(-c2ccc3c(c2)OCO3)c2c1COc1ccc(NC(=O)c3ccccc3Cl)cc1-2 [Example 34]", "targetEntity": "IKK2 (IKKβ) (Homo sapiens)", "recordedMeasurement": "≥ 6.00"}
{"molecule": "NC(=O)c1nn(-c2ccc3c(c2)OCO3)c2c1COc1ccc(NC(=O)c3ccncc3Cl)cc1-2 [Example 32]", "targetEntity": "IKK2 (IKKβ) (Homo sapiens)", "recordedMeasurement": "≥ 6.00"}
{"molecule": "NC(=O)c1nn(-c2ccc3c(c2)OCO3)c2c1COc1ccc(NC(=O)c3cc(N)ccc3Cl)cc1-2 [Example 33]", "targetEntity": "IKK2 (IKKβ) (Homo sapiens)", "recordedMeasurement": "≥ 6.00"}
{"molecule": "NC(=O)c1nn(-c2ccc3c(c2)OCO3)c2c1COc1ccc(NC(=O)c3cc4c(cc3Cl)OCO4)cc1-2 [Example 31]", "targetEntity": "IKK2 (IKKβ) (Homo sapiens)", "recordedMeasurement": "≥ 6.00"}

We now examine a further molecule.
The molecule listed as NC(=O)c1nn(-c2ccc3c(c2)OCO3)c2c1COc1ccc(NC(=O)c3cccc(Cl)c3Cl)cc1-2 [Example 45] shows pIC50 equal to ≤ 4.00

====

# targetEntity: IKK2 (IKKβ) (Homo sapiens, UniProt O14920)
# Construct: made in house; host or cells: baculovirus-infected insect cells (SF9)
# Sequence (O14920 1-756): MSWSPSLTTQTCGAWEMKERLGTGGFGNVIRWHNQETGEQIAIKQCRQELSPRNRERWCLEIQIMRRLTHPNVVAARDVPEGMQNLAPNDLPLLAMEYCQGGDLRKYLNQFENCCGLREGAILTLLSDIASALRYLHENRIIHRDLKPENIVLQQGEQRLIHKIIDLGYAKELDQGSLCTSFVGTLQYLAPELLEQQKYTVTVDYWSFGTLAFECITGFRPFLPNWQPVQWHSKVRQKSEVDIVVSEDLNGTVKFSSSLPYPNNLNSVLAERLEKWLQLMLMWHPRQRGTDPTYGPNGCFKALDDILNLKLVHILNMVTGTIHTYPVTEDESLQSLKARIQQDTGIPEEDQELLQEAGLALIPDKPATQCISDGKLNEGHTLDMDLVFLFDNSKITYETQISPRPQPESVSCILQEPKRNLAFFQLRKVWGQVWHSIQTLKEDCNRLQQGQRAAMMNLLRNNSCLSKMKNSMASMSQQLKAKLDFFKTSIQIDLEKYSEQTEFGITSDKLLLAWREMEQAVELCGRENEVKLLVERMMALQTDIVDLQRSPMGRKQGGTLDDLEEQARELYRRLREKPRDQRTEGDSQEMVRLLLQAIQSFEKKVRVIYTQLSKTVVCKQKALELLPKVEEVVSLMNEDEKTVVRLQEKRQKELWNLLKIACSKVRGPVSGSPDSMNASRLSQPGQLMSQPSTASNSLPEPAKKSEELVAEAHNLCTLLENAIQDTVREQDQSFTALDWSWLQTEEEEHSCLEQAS
# measurementNotes: IKK2 (IKKβ) resin enzyme assay
# Assay type: biochemical
# assayConditions: Table 4; read-out: IKK2 Resin IC50
quantity: IC50

{"lineNotation": "NC(=O)c1nn(-c2ccc(F)cc2)c2c1COc1ccc(NC(=O)c3ccncc3Cl)cc1-2", "IC50": "< 1 µM"}

Record `NC(=O)c1nn(-c2cccc(F)c2)c2c1COc1ccc(NC(=O)c3cccnc3Cl)cc1-2` / IKK2 (IKKβ) (Homo sapiens, UniProt O14920), IC50 recorded as ≤ 1 µM

Record `NC(=O)c1nn(-c2ccc(F)cc2)c2c1COc1ccc(NC(=O)c3cccnc3Cl)cc1-2` / IKK2 (IKKβ) (Homo sapiens, UniProt O14920), IC50 recorded as ≤ 1 µM
